Source listed as patent US20190380937A1.

# IC50 annotations
Tested on: normal human melanocytes
experiment description: Depigmenting activity (reduction of melanin production) in normal human melanocytes in vitro
Type: cell-based
test conditions: Homo sapiens, Melanocyte; another campaign; comparison with closest prior art compound of FR 2 968 661; read-out: IC50 (concentration at which 50% decrease in melanin synthesis is achieved)
State the answer as a number, implicitly in µM.

compound | test readout | unit abbreviation | numeric result
CCOC(=O)CNC(=O)c1ccc[nH]c1=S | IC50 | µM | 20.8

Prompt: Identify measured IC50 corresponding to CCOC(=O)C(C)NC(=O)c1ccc[nH]c1=S (centres unmarked) [reference compound]
Completion: 37.4

* * *

Below is a list of entries, each paired with its recorded IC50 value.
System: normal human melanocytes
experiment description: Depigmenting activity (reduction of melanin production) in normal human melanocytes in vitro
Type: cell-based
test conditions: Melanocyte; normal human melanocytes, 72 hours incubation, optical density; highest concentration 200 μM; read-out: IC50 (concentration at which 50% decrease in melanin synthesis is achieved)
Dear colleague, please return just the value in µM, with no unit written.

Reference set, count: 3
molecule | unit abbreviation | numeric result
O=C(O)CNC(=O)c1ccc[nH]c1=S [Compound 1] | µM | 11.4
CN(CC(=O)O)C(=O)c1ccc[nH]c1=S [Compound 2] | µM | 5.27
CCOC(=O)CN(C)C(=O)c1ccc[nH]c1=S [Compound 4] | µM | 67.6

Prompt: Output measured IC50 for this item: CCOC(=O)CNC(=O)c1ccc[nH]c1=S [Compound 3]
Completion: 36.8
